tgt: 5-hydroxytryptamine receptor 2A (Homo sapiens) (UniProt P28223)
Sequence (P28223 whole entry, looked up): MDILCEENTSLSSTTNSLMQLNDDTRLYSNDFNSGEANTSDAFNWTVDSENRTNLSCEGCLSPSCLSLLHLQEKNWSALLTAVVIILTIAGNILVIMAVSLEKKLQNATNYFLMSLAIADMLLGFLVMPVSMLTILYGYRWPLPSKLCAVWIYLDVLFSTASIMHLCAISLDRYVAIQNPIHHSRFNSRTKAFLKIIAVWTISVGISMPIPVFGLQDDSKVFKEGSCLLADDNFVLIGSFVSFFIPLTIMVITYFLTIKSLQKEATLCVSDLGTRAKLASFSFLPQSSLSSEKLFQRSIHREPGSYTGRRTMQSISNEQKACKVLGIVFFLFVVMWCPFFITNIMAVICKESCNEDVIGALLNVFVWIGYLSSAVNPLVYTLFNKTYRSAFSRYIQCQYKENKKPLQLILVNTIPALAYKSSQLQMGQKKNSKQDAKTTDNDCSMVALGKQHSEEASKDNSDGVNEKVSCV
protocol description: 5-hydroxytryptamine receptor 2A (HTR2A) small molecule antagonists, cell-based qHTS assay (AID 1963586); further: nearly all actives have a fitted effect of over 45% in size
experimental conditions: HTR2A-CHO cells, DOI-induced calcium flux, fluorescence; series mostly up to 61.5 µM
Results filed as inconclusive are left out. Active and inactive are the calls of the source. The call rests on the fitted dose curve.
Labels: active, inactive

compound	class name
COC(=O)NCCC[Si](OC)(OC)OC	inactive
C=C(C)C(=O)OCCOP(=O)(O)OCCOC(=O)C(=C)C	inactive
N[C@@H]1CONC1=O	inactive
OC[C@H]1O[C@@H]2O[C@H]3[C@H](O)[C@@H](O)[C@@H](O[C@H]4[C@H](O)[C@@H](O)[C@@H](O[C@H]5[C@H](O)[C@@H](O)[C@@H](O[C@H]6[C@H](O)[C@@H](O)[C@@H](O[C@H]7[C@H](O)[C@@H](O)[C@@H](O[C@H]8[C@H](O)[C@@H](O)[C@@H](O[C@H]9[C@H](O)[C@@H](O)[C@@H](O[C@H]1[C@H](O)[C@H]2O)O[C@@H]9CO)O[C@@H]8CO)O[C@@H]7CO)O[C@@H]6CO)O[C@@H]5CO)O[C@@H]4CO)O[C@@H]3CO	inactive
COC(=O)c1cc(Cl)ccc1[N+](=O)[O-]	inactive
O=C(O)c1ccccc1C(=O)OCc1ccccc1	inactive
O=C1c2ccccc2C(=O)N1SC1CCCCC1	inactive
O=[N+]([O-])c1ccc(O)cc1	inactive
CC(C)c1ccccc1	inactive
CCCCNCCCC	inactive
CCCCO	inactive
NC(=O)c1nc(-c2cccc(-c3cc(F)ccc3OCC(F)(F)C(F)(F)F)c2)n[nH]1	inactive
CCCCNc1ccc(C(=O)OCCN(CC)CC)cc1	inactive
C[C@H]1COc2c(C3(N)CC3)c(F)cc3c(=O)c(C(=O)O)cn1c23	inactive
C=Cc1ccc(O)c(OC)c1	inactive
CCCCN(CCCC)CC(O)c1cc(Cl)cc2c1-c1ccc(Cl)cc1/C2=C/c1ccc(Cl)cc1 (stereo not drawn)	inactive
CC1(O)CSC(C)(O)CS1 (stereo not drawn)	inactive
COc1ccc(C2CNC(=O)C2)cc1OC1CCCC1 (stereo not drawn)	inactive
O=C(O)CCSSCCC(=O)O	inactive
CCO[Si](CCC1CCC2OC2C1)(OCC)OCC (stereo not drawn)	inactive
COC(=O)c1nc(Cl)c(Cl)nc1N	inactive
CN1CCC(N(Cc2cccs2)c2ccccc2)CC1	active
Cc1cccc2c1cc1ccc3cccc4ccc2c1c34	inactive
